The origin of these recorded values is patent US20120172293A1.

# Tested target: T1, human Y2 receptor (human, UniProt P49146 1-381)
# T1 sequence (looked up): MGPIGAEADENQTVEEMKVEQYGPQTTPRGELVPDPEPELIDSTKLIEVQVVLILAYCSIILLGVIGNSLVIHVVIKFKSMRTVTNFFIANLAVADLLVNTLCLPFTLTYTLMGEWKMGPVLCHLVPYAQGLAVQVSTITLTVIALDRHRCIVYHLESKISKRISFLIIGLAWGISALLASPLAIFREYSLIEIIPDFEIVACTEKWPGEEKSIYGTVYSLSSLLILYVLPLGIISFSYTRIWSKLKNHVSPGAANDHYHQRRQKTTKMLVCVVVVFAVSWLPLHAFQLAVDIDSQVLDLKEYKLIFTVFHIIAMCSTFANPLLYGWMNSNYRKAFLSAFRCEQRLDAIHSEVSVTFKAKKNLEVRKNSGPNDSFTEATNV
# Assay summary: cell-based or functional assay
Non-standard residues stand in square brackets, D forms with d. No end group written: not given here. 4Pal = N[C@@H](Cc1ccncc1)C(=O)O; Cha = N[C@@H](CC1CCCCC1)C(=O)O; dIva = CC[C@@](C)(N)C(=O)O; 4Amb = NCc1ccc(C(=O)O)cc1; Nle = CCCC[C@H](N)C(=O)O; Aib = CC(C)(N)C(=O)O
Experimental readout: GBA EC50 Ratio (vs PYY(3-36)), [35S]GTPγS (ratio)

# Binder, Measured result
rows = [
    ("Ac-S[dP]RH[dIva][Cha]NL[Aib]TRQR[Cha]-NH2 (SMILES CC[C@@](C)(NC(=O)[C@H](Cc1c[nH]cn1)NC(=O)[C@H](CCCNC(=N)N)NC(=O)[C@H]1CCCN1C(=O)[C@H](CO)NC(C)=O)C(=O)N[C@@H](CC1CCCCC1)C(=O)N[C@@H](CC(N)=O)C(=O)N[C@@H](CC(C)C)C(=O)NC(C)(C)C(=O)N[C@H](C(=O)N[C@@H](CCCNC(=N)N)C(=O)N[C@@H](CCC(N)=O)C(=O)N[C@@H](CCCNC(=N)N)C(=O)N[C@@H](CC1CCCCC1)C(N)=O)[C@@H](C)O, also called compound No. 180) [Ac-[D-Pro24, D-Iva27, Cha28,36, Aib31]-PYY(23-36)]", 6),
    ("[4Amb]RA[Nle]INLITRQRY-NH2 (N-terminus assumed; SMILES CCCC[C@H](NC(=O)[C@H](C)NC(=O)[C@H](CCCNC(=N)N)NC(=O)c1ccc(CN)cc1)C(=O)N[C@H](C(=O)N[C@@H](CC(N)=O)C(=O)N[C@@H](CC(C)C)C(=O)N[C@H](C(=O)N[C@H](C(=O)N[C@@H](CCCNC(=N)N)C(=O)N[C@@H](CCC(N)=O)C(=O)N[C@@H](CCCNC(=N)N)C(=O)N[C@@H](Cc1ccc(O)cc1)C(N)=O)[C@@H](C)O)[C@@H](C)CC)[C@@H](C)CC, also called compound No. 43) [4-Aminomethylbenzoyl-[Ala26, Nle27, Ile28,31]-PYY(25-36)]", 2.3),
    ("Ac-E[dP]R[4Pal][Cha]YNK[Aib]TRQR[Cha]-NH2 (SMILES CC(=O)N[C@@H](CCC(=O)O)C(=O)N1CCC[C@@H]1C(=O)N[C@@H](CCCNC(=N)N)C(=O)N[C@@H](Cc1ccncc1)C(=O)N[C@@H](CC1CCCCC1)C(=O)N[C@@H](Cc1ccc(O)cc1)C(=O)N[C@@H](CC(N)=O)C(=O)N[C@@H](CCCCN)C(=O)NC(C)(C)C(=O)N[C@H](C(=O)N[C@@H](CCCNC(=N)N)C(=O)N[C@@H](CCC(N)=O)C(=O)N[C@@H](CCCNC(=N)N)C(=O)N[C@@H](CC1CCCCC1)C(N)=O)[C@@H](C)O, also called compound No. 139) [Ac-[Glu23, D-Pro24, Pya(4)26, Cha27,36, Tyr28, Lys30, Aib31]-PYY(23-36)]", 1.2),
    ("[4Amb]RAYINYITRQRY-NH2 (N-terminus assumed; SMILES CC[C@H](C)[C@H](NC(=O)[C@H](Cc1ccc(O)cc1)NC(=O)[C@H](C)NC(=O)[C@H](CCCNC(=N)N)NC(=O)c1ccc(CN)cc1)C(=O)N[C@@H](CC(N)=O)C(=O)N[C@@H](Cc1ccc(O)cc1)C(=O)N[C@H](C(=O)N[C@H](C(=O)N[C@@H](CCCNC(=N)N)C(=O)N[C@@H](CCC(N)=O)C(=O)N[C@@H](CCCNC(=N)N)C(=O)N[C@@H](Cc1ccc(O)cc1)C(N)=O)[C@@H](C)O)[C@@H](C)CC, also called compound No. 57) [4-Aminomethylbenzoyl-[Ala26, Ile28,31, Tyr30]-PYY(25-36)]", 1.9),
]
